The measurements presented in this section are drawn from patent US6504058B1.

# Tested on: Puccinia recondita
# procedureDetails: Test B: wheat leaf rust, preventive spray on wheat seedlings, disease rating
# Assay type: in vivo, Puccinia recondita (on wheat seedlings)
# particulars: 200 ppm test suspension sprayed to run-off (equivalent to 500 g/ha) on wheat seedlings; 100 = 100% disease control, 0 = no control; # = significant activity
parameterMeasured: Test B disease control rating (wheat leaf rust)

Briefly, Test B disease control rating (wheat leaf rust) measured for CC(COc1ccc(Br)cc1C#N)NC(=O)C1(C)CC(C)(Cl)C1 (stereo not drawn) [compound 38] : 66# %

----------
# Test system: Erysiphe graminis f. sp. tritici
# procedureDetails: Test A: wheat powdery mildew, preventive spray on wheat seedlings, disease rating
# Assay type: in vivo, Erysiphe graminis f. sp. tritici (on wheat seedlings)
# particulars: 200 ppm test suspension sprayed to run-off (equivalent to 500 g/ha) on wheat seedlings; 100 = 100% disease control, 0 = no control; # = significant activity
parameterMeasured: Test A disease control rating (wheat powdery mildew)

For this molecule ( CC(NC(=O)C1(Cl)CC(Cl)(Cl)C1)c1ccc(Br)cc1 (centres unmarked) [compound 12] ), measured Test A disease control rating (wheat powdery mildew) is 99%

# molecule CC(NC(=O)C1(C)CC(C)(Cl)C1)c1ccc(Cl)cc1Cl (centres unmarked) [compound 19] ; its Test A disease control rating (wheat powdery mildew) = 33%

// sample CC(NC(=O)C1(C)CC(C)(Cl)C1)c1ccc(Cl)cc1Cl (centres unmarked) [compound 71] , its Test A disease control rating (wheat powdery mildew) was 61%

# molecule CC(NC(=O)C1(C)CC(F)(F)C1)c1ccc(Br)cc1 (centres unmarked) [compound 67] ; its Test A disease control rating (wheat powdery mildew) = 63%

Looking up CC(COc1cc(Br)ccc1C#N)NC(=O)C1(C)CC(C)(Cl)C1 (centres unmarked) [compound 48] , I see its Test A disease control rating (wheat powdery mildew) listed as 96# %

For record CC(COc1cc(F)ccc1F)NC(=O)C1(C(F)(F)F)CC(C)(Cl)C1 (centres unmarked) [compound 28] the listed Test A disease control rating (wheat powdery mildew) is 53%

Test A disease control rating (wheat powdery mildew) measured on CC(COc1cc(Cl)ccc1F)NC(=O)C1(C)CC(C)(Cl)C1 (centres unmarked) [compound 51] = 83# %

Entry CC(COc1cc(Cl)ccc1C#N)NC(=O)C1(C)CC(C)(Cl)C1 (centres unmarked) [compound 46] — recorded Test A disease control rating (wheat powdery mildew) = 63%

Looking up CC(COc1cc(F)ccc1Cl)NC(=O)C1(C)CC(C)(Br)C1 (centres unmarked) [compound 55] , I found its Test A disease control rating (wheat powdery mildew) recorded as 83# %

Per the record, CC(NC(=O)C1CC(C)(Cl)C1)C(Oc1cc(F)ccc1F)c1ccccc1 (centres unmarked) [compound 32] has Test A disease control rating (wheat powdery mildew) of 59%

The reported value for CC(COc1cc(Br)ccc1C#N)NC(=O)C1(C)CC(C)(Cl)C1 (centres unmarked) [compound 47] in terms of Test A disease control rating (wheat powdery mildew) is 97# %

Reported Test A disease control rating (wheat powdery mildew) ( CC(COc1cc(Cl)ccc1F)NC(=O)C1(C)CC(C)(Br)C1 (centres unmarked) [compound 54] ) = 24%

The recorded Test A disease control rating (wheat powdery mildew) for entry CC(COc1cc(F)ccc1Cl)NC(=O)C1(C)CC(C)(Cl)C1 (centres unmarked) [compound 49] equals 98# %

So for CC(COc1ccc(Cl)cc1C#N)NC(=O)C1(C)CC(C)(Cl)C1 (centres unmarked) [compound 42] , the logged Test A disease control rating (wheat powdery mildew) turned out to be 63%

Looking up CC(COc1cc(F)ccc1F)NC(=O)C1(C)CC(C)(Br)C1 (centres unmarked) [compound 58] , I see its Test A disease control rating (wheat powdery mildew) listed as 72%

----------
# Tested on: Puccinia recondita
# procedureDetails: Test B: wheat leaf rust, preventive spray on wheat seedlings, disease rating
# Assay type: in vivo, Puccinia recondita (on wheat seedlings)
# particulars: 200 ppm test suspension sprayed to run-off (equivalent to 500 g/ha) on wheat seedlings; 100 = 100% disease control, 0 = no control; # = significant activity
What Test B disease control rating (wheat leaf rust) was measured for each of the following?

GET /value?item= CC(COc1cc(F)ccc1F)NC(=O)C1(C)CC(C)(Cl)C1 (stereo not drawn) [compound 29] &field=Test B disease control rating (wheat leaf rust) returns 86# %

Record CC(COc1cc(Br)ccc1C#N)NC(=O)C1(C)CC(C)(Cl)C1 (stereo not drawn) [compound 47] , field Test B disease control rating (wheat leaf rust): 25%

Test B disease control rating (wheat leaf rust) recorded for this compound, CC(COc1cc(Cl)ccc1C#N)NC(=O)C1(C)CC(C)(Cl)C1 (stereo not drawn) [compound 46] , is 28%

# Test B disease control rating (wheat leaf rust) of CC(COc1ccc(F)cc1C#N)NC(=O)C1(C)CC(C)(Cl)C1 (stereo not drawn) [compound 39] = 25%

Lookup result for CC(COc1ccc(Br)cc1C#N)NC(=O)C1(C)CC(C)(Cl)C1 (stereo not drawn) [compound 37] ; measured Test B disease control rating (wheat leaf rust): 25%

What the record says about CC(COc1cc(Br)ccc1C#N)NC(=O)C1(C)CC(C)(Cl)C1 (stereo not drawn) [compound 48] : Test B disease control rating (wheat leaf rust) is 85# %

# compound COc1cc(Br)ccc1C(C)NC(=O)C1(C)CC(C)(Cl)C1 (stereo not drawn) [compound 59] ; its Test B disease control rating (wheat leaf rust) = 85# %

----------
# Tested on: Erysiphe graminis f. sp. tritici
# procedureDetails: Test A: wheat powdery mildew, preventive spray on wheat seedlings, disease rating
# Assay type: in vivo, Erysiphe graminis f. sp. tritici (on wheat seedlings)
# particulars: 200 ppm test suspension sprayed to run-off (equivalent to 500 g/ha) on wheat seedlings; 100 = 100% disease control, 0 = no control; # = significant activity
parameterMeasured: Test A disease control rating (wheat powdery mildew)

The compound identified as CC(NC(=O)C1CC(C)(Cl)C1)c1ccc(Br)cc1 (stereo not shown) [compound 11] registered its Test A disease control rating (wheat powdery mildew) at 57%

// recorded Test A disease control rating (wheat powdery mildew) for CC(NC(=O)C1CC(C)(Cl)C1)c1ccc(Br)cc1 (stereo not shown) [compound 10] : 74%

get_value(item= CC(COc1cc(Cl)ccc1F)NC(=O)C1(C)CC(C)(Cl)C1 (stereo not shown) [compound 52] , readout=Test A disease control rating (wheat powdery mildew)) returns 83# %

----------
Assignment: determine reported Test C disease control rating (rice blast) for the given compounds.
# Test system: Pyricularia oryzae
# Type: in vivo, Pyricularia oryzae (on rice seedlings)
# particulars: 200 ppm test suspension sprayed to run-off (equivalent to 500 g/ha) on rice seedlings; 100 = 100% disease control, 0 = no control; # = significant activity

For CC(NC(=O)C1(C)CC(C)(Br)C1)c1ccc(Br)cc1 (stereo not drawn) [compound 18] on Pyricularia oryzae, measured Test C disease control rating (rice blast) was 99# %

Field Test C disease control rating (rice blast) (Pyricularia oryzae), entry CC(NC(=O)C1(C)CC(F)(F)C1)c1ccc(Br)cc1 (stereo not drawn) [compound 67] : 99# %

Reading of Test C disease control rating (rice blast) for CC(NC(=O)C1CC(C)(Cl)C1)C(Oc1cc(F)ccc1C#N)c1ccccc1 (stereo not drawn) [compound 34] with Pyricularia oryzae: 52%

For the compound CC(NC(=O)C1CC(C)(Cl)C1)C(Oc1cc(F)ccc1F)c1ccccc1 (stereo not drawn) [compound 31] , the measured Test C disease control rating (rice blast) on Pyricularia oryzae was 90# %

Recorded Test C disease control rating (rice blast) for CC(COc1cc(F)ccc1Cl)NC(=O)C1(C)CC(C)(Br)C1 (stereo not drawn) [compound 55] on Pyricularia oryzae was 74%

The compound CC(COc1cc(Cl)ccc1F)NC(=O)C1(C)CC(C)(Br)C1 (stereo not drawn) [compound 54] on Pyricularia oryzae: Test C disease control rating (rice blast) was 97# %

Fill in: Pyricularia oryzae Test C disease control rating (rice blast) for CC(COc1cc(Br)ccc1C#N)NC(=O)C1(C)CC(C)(Cl)C1 (stereo not drawn) [compound 48] = 99# %

Reading of Test C disease control rating (rice blast) for CC(COc1cc(F)ccc1F)NC(=O)C1(C)CC(C)(Br)C1 (stereo not drawn) [compound 58] with Pyricularia oryzae: 97# %

Assay Pyricularia oryzae, sample CC(NC(=O)C1CC(C)(Cl)C1)C(Oc1ccccc1C#N)c1ccccc1 (stereo not drawn) [compound 35] , Test C disease control rating (rice blast) read: 86# %

Record COc1cc(Br)ccc1C(C)NC(=O)C1(C)CC(C)(F)C1 (stereo not drawn) [compound 70] / Pyricularia oryzae, Test C disease control rating (rice blast) recorded as 97# %

GET /values?item= CC(COc1ccc(F)cc1C#N)NC(=O)C1(C)CC(C)(Cl)C1 (stereo not drawn) [compound 39] &system= Pyricularia oryzae returns Test C disease control rating (rice blast): 97# %

The value of Test C disease control rating (rice blast) recorded for CC(NC(=O)C1CC(C)(Cl)C1)C(Oc1cc(F)ccc1C#N)c1ccccc1 (stereo not drawn) [compound 33] when tested on Pyricularia oryzae reads 52%

Value (Test C disease control rating (rice blast), Pyricularia oryzae) for record CC(COc1ccccc1F)NC(=O)C1(C(F)(F)F)CC(C)(Cl)C1 (stereo not drawn) [compound 25] = 97# %
